B1: mRNA-splicing (parent)
chain: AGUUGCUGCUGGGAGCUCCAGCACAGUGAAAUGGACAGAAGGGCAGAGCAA

Variants of: B1
TEST SUMMARY: exon inclusion enrichment index; higher = more inclusion; WT1 exon 5 minigene, HEK293
Recorded exon inclusion enrichment index, one value per entry.
QUANTITY: exon inclusion enrichment index

G5C C6A U7C G8A U10A A29U A30U    0.0185
G8C C9U    0.216
G5A U7C G8A U10C G34A A35C    1.83
C6A U7A C9A U10A G42U G43A    1.42
G5C C6A U7C G8A U10A C44U A45C    0.252
G5A U7C G8A U10C C24A    2.26
G5A C6G U7G C9A A31C U32C    0.00479
A39G A40U    0.0108
C6A U7A C9A U10A G26U    0.794
G5C C6A U7C G8A U10A G21A C22A    0.0529
G26A U27A    0.101
C6A U7C C9A U10C A40G    3.27
G5A C6U U7A G8U C9A C24G A25C    0.392
G5C C6G U7C G8A C9A U10C    3.14
G5C C6U G8C C9U U10C A47C G48U    1.77
G5A C6U U7A G8U C9A G21U    0.0639
G5A C6U U7A G8U C9G    0.0579
C6A U7A C9A U10A G43U    0.644

Data origin, for the record: the RNAGym collection of RNA variant scans (doi:10.1101/gr.219683.116)
